# Tested on: HepG2
# assay.text: cell viability relative to DMSO; higher = less toxic
# test.context: 72 h; 1 nM
quantity.name: cell viability (%)
Give the value in % but do not write % after it.

Identify the measured cell viability of C[C@@H]1CC(=O)c2c(ccc3c2C(=O)c2cccc(O)c2C3=O)C1 for HepG2.
87.4

###

Listed next: entries and their corresponding cell viability.
# Test system: Vero E6
# assay.text: cell viability relative to DMSO; higher = less toxic
# test.context: 72 h; 10 nM
Output spec: scalar in %, unitless text.

Study these solved cases before continuing.
> print(dat)
                                   compound  system.name  readout.number
1  CC(C)=CCC[C@](C)(O)[C@H]1CC[C@]2(C)[C@@H]1[C@H](O)C[C@@H]1[C@@]3(C)CC[C@H](O)C(C)(C)[C@@H]3[C@@H](O)C[C@]12C [hemomex-s]      Vero E6            93.9
2  CN(C)CCn1nnnc1SCC1=C(C(=O)O)N2C(=O)[C@@H](NC(=O)Cc3csc(N)n3)[C@H]2SC1 [cefotiam]      Vero E6            95.5
3  O=C(NCCCN1CCOCC1)c1cnn2c(-c3ccccc3)cc(-c3ccccc3)nc12 [reversan]      Vero E6             100
4  CC1CCc2cc(F)cc3c(=O)c(C(=O)O)cn1c23 (stereo not given) [flumequine]      Vero E6            94.7

Now for the compound whose cell viability we want.
Fill in the blank: the reported cell viability of O=c1cc(N2CCOCC2)oc2c(-c3ccccc3)cccc12 is ____.
97.4

###

The following molecules are shown together with reported cell viability values.
# Tested on: Vero E6
# assay.text: cell viability relative to DMSO; higher = less toxic
# test.context: 72 h; 100 nM
API: value field is a number in %; no unit string.

> print(dat)
                                   molecule  system.name   quantity.name  readout.number
1  CN(c1ccccc1CNc1nc(Nc2ccc3c(c2)CC(=O)N3)ncc1C(F)(F)F)S(C)(=O)=O      Vero E6  cell viability            81.2

// cell viability lookup, key: CC(C)[C@@H]1CC[C@@H](C)C[C@H]1O
101

Sample COC(=O)[C@@H]1C[C@H](OC(C)=O)C(=O)[C@H]2[C@@]1(C)CC[C@H]1C(=O)O[C@H](c3ccoc3)C[C@]21C — what was its cell viability?
106

cell viability for CCn1c(-c2nonc2N)nc2cnc(Oc3cccc(NC(=O)c4ccc(OCCN5CCOCC5)cc4)c3)cc21 ?
88.9

###

# Tested on: Calu-3
# assay.text: cell viability relative to DMSO; higher = less toxic
# test.context: 72 h; 1000 nM
Listed here: items and their measured cell viability.

Example results:
compound	cell viability
CCCCCCCCCCCCCCCCO [1-hexadecanol]	95.5%
O=C(CNC(=O)c1ccc(Cl)cc1)NO [benurestat]	103%
CC(C)C(=O)Nc1ccc([N+](=O)[O-])c(C(F)(F)F)c1 [flutamide]	101%
CC[C@@]1([C@H]2O[C@H]([C@H]3O[C@@](O)(CO)[C@H](C)C[C@@H]3C)C[C@H]2C)CC[C@H]([C@@]2(C)CC[C@]3(C[C@H](O)[C@@H](C)[C@@H]([C@H](C)[C@H](OC)[C@@H](C)C(=O)O)O3)O2)O1 [MONENSIN SODIUM]	68%
COc1ccc2c(c1)c(CC(=O)O)c(C)n2C(=O)c1ccc(Cl)cc1 [indomethacin]	84.3%

Bench note: what cell viability did NS(=O)(=O)NCc1csc2ccccc12 show?
103%

Please report the recorded cell viability for C/C(=C\c1csc(C)n1)[C@@H]1C[C@@H]2O[C@]2(C)CCC[C@H](C)[C@H](O)[C@@H](C)C(=O)C(C)(C)[C@@H](O)CC(=O)N1 [ixabepilone] .
67.2%

So what's the measured cell viability for this one? CC#CC(=O)N1CCC[C@H]1c1nc(-c2ccc(C(=O)Nc3ccccn3)cc2)c2c(N)nccn12 [acalabrutinib]
67.8%

So what does the record say about cell viability for CCCCCCOc1nsnc1C1=CCCN(C)C1 [xanomeline] ?
104%

Which cell viability value belongs to c1ccc(CCCN2CCN(CCOC(c3ccccc3)c3ccccc3)CC2)cc1 ?
95.9%

What value of cell viability has been recorded for this entry: C[C@@H]1O[C@@H](O[C@@H]2[C@@H](O)[C@H](OCCc3ccc(O)c(O)c3)O[C@H](CO)[C@H]2OC(=O)/C=C/c2ccc(O)c(O)c2)[C@H](O)[C@H](O)[C@H]1O [verbascoside]
105%

Which cell viability is listed for C[C@]12CC/C(=N\OCCN)C[C@@H]1C(=O)C[C@@H]1[C@@H]2CC[C@]2(C)C(=O)CC[C@@H]12 [istaroxime] ?
91.1%

Param item = CCOC(=O)c1c[nH]cn1 [C-751] ; retrieve measured cell viability.
92.9%

Entry under review: CC(C)[C@H](CO)Nc1nc(Nc2cccc(Cl)c2)c2ncn(C(C)C)c2n1 [purvalanol-A] . Reported cell viability?
102%

What does the record list as cell viability for O=C(OCC(O)CO)c1ccccc1Nc1ccnc2c(C(F)(F)F)cccc12 (stereo unspecified) [floctafenine] ?
98.7%

Consider the compound shown here: CC(=O)OC[C@H]1O[C@@](COC(C)=O)(O[C@H]2O[C@H](COC(C)=O)[C@@H](OC(C)=O)[C@H](OC(C)=O)[C@H]2OC(C)=O)[C@@H](OC(C)=O)[C@@H]1OC(C)=O [sucrose-octaacetate] What is its recorded cell viability?
103%
